target: human 5-HT7 receptor (Homo sapiens (Human), UniProt P34969); experiment: Test 2: antagonist activity for human 5-HT7 receptor (aequorin luminescence, CHO-K1 cells); type: cell-based; conditions: Gα16
Sequence (P34969 whole entry): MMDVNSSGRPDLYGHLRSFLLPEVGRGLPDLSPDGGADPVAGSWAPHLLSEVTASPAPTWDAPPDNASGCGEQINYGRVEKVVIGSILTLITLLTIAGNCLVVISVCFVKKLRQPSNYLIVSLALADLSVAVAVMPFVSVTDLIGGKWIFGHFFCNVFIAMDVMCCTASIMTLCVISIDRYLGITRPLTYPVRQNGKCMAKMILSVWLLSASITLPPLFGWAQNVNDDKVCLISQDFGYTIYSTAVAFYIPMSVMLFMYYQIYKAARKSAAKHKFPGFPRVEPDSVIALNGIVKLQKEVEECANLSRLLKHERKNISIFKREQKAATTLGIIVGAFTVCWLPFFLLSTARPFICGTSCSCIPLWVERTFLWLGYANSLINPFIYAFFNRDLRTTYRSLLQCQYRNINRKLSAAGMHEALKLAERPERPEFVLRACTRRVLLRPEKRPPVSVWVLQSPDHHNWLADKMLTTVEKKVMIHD
pIC50: −log10 of the molar value.
Measured parameter: pIC50

# Compound, Measured target, Measured parameter, Test result
data = [
    ("CCN(CCN1CCC(c2noc3cc(F)ccc23)CC1)C(=O)C1CC(O)C1 (stereo not drawn)", "human 5-HT7 receptor (Homo sapiens (Human), UniProt P34969)", "pIC50", 7.08),
]

[a] CCN(CCN1CCC(c2c[nH]c3cc(F)ccc23)CC1)C(=O)CCO
[b] CCN(CCCN1CCC(c2noc3ccccc23)CC1)S(=O)(=O)C(C)CO (stereo not drawn)
*Q* Two entries are listed, a and b . Which one carries the higher pIC50? Mark your answer with the label of the selected entry.
*A* b
(b: 9.00, a: 7.74)

====

experiment: Test 3-1: metabolic stability test in human hepatic microsome; assay type: in vitro ADME; conditions: microsome 0.1 mg/mL, test compound 0.1 μmol/L, 37° C., 30 minutes
Parameter Metabolic stability in human hepatic microsome: see the listing below.

# Compound, Test result
data = [
    ("CCN(CCN1CCN(c2noc3cc(F)ccc23)CC1)C(=O)C(C)O (stereo not drawn)", "<0.05 mL/min/mg protein"),
    ("CCN(CCN1CCC(c2c[nH]c3cc(F)ccc23)CC1)C(=O)[C@H](C)O", "<0.05 mL/min/mg protein"),
    ("CCN(CCN1CCC(c2noc3cc(F)ccc23)CC1)C(=O)C1CCC(O)CC1 (stereo not drawn)", "<0.05 mL/min/mg protein"),
    ("CCN(CCN1CCC(c2noc3cc(F)ccc23)CC1)C(=O)CC(C)O (stereo not drawn)", "<0.05 mL/min/mg protein"),
    ("CCN(CCN1CCC(c2noc3cc(F)ccc23)CC1)C(=O)C1CN(C)CCC1O (stereo not drawn)", "<0.05 mL/min/mg protein"),
    ("CCN(CCN1CCC(c2c[nH]c3ccccc23)CC1)C(=O)[C@@H](C)O", "<0.05 mL/min/mg protein"),
]

Now take the following compound into account.
*Q* Determine from records and report Metabolic stability in human hepatic microsome for CCN(CCN1CCN(c2noc3ccccc23)CC1)C(=O)C(C)O (stereo not drawn)
*A* <0.05 mL/min/mg protein

====

biological target: human 5-HT7 receptor (Homo sapiens (Human)); experiment: Test 2: antagonist activity for human 5-HT7 receptor (aequorin luminescence, CHO-K1 cells); conditions: Gα16
pIC50: −log10 of the molar value.
Measured parameter: pIC50

# Molecule, Measured target, pIC50
records = [
    ("CC(O)C(=O)N(CCN1CCC(c2noc3cc(F)ccc23)CC1)CC1CC1 (stereo not drawn) [Example 30]", "human 5-HT7 receptor (Homo sapiens (Human))", 7.41),
    ("CCN(CCN1CCC(c2noc3cc(F)ccc23)CC1)C(=O)CO [Example 12]", "human 5-HT7 receptor (Homo sapiens (Human))", 7.09),
    ("CCN(CCN1CCC(c2noc3cc(F)ccc23)CC1)S(=O)(=O)CCO [Example 51]", "human 5-HT7 receptor (Homo sapiens (Human))", 7.21),
    ("CCN(CCN1CCC(c2noc3cc(F)ccc23)CC1)C(=O)C(O)CN (stereo not drawn) [Example 65]", "human 5-HT7 receptor (Homo sapiens (Human))", 7.09),
]

[1] CCN(CCN1CCC(c2c[nH]c3ccccc23)CC1)C(=O)[C@H](C)O [Example 23]
[2] CCN(CCCN1CCN(c2noc3cc(F)ccc23)CC1)S(=O)(=O)C(C)CO (stereo not drawn) [Example 55]
*Q* Min pIC50? 1 | 2 Mark your answer with the label of the selected entry.
*A* 1
